# Test system: panel of 240 cancer cell lines
# method_description: 10-day growth/death assay (Eurofins panel)
# Format: cell-based
# particulars: Homo sapiens, CML-T1, CML-T1; read-out: gIC50

compound | system | units_symbol | IC50
O=C(NC[C@H](O)CN1CCc2ccccc2C1)c1ccnc(NC2CCC2)c1 [GSK3203591] | panel of 240 cancer cell lines | nM | 16.1

---

# Test system: panel of hematologic and solid cancer lines
# method_description: 6-day in vitro growth/death assay
# Assay type: cell-based, human
# particulars: RCK8; read-out: gIC50
pIC50: −log10 of the molar value.
Reported pIC50 values are given for each entry in this list.
value_kind: pIC50

smiles_str | system | test_result
CC(=O)N1CCC(Nc2cc(C(=O)NC[C@H](O)CN3CCc4ccccc4C3)ncn2)CC1 | panel of hematologic and solid cancer lines | 6.28
O=C(NC[C@H](O)CN1CCc2ccccc2C1)c1ccnc(NC2CCC2)c1 | panel of hematologic and solid cancer lines | 5.68
